From: patent EP4640686A1

Reported DC50 is given for each of the following compounds.
Biological target: BRD4 (Homo sapiens)
Test: BRD4 protein degradation by western blotting in RPMI2650 cells (24 h treatment)
Format: cell-based
Set-up: To evaluate the resolution of PROTAC for BRD4 expressed in cells; endogenous in cells; host or cells: RPMI2650
Settings: RPM12650, read-out: BRD4 (DC50)

The cases that follow already have their DC50 on record.
compound	test result
CC[C@H]1c2nnc(C)n2-c2cnc(Nc3ccc(C(=O)NC4CCN(CCC5CCN(c6ccc(NC7CCC(=O)NC7=O)cc6F)CC5)CC4)cc3OC)nc2N1CC1CCCCC1 (some centres unmarked) [ICT-0001562]	> 1 µM
CC[C@@H]1c2nnc(C)n2-c2cnc(Nc3ccc(C(=O)N4CCN(CCNc5cccc6c(C)nn(C7CCC(=O)NC7=O)c(=O)c56)CC4)cc3OC)nc2N1CC1CCCCC1 (some centres unmarked)	< 0.1 µM
CC[C@@H]1c2nnc(C)n2-c2cnc(Nc3ccc(C(=O)NC4CCN(C(=O)CCN5CCN(c6ccc(NC7CCC(=O)NC7=O)cc6F)CC5)CC4)cc3OC)nc2N1CC1CCCCC1 (some centres unmarked)	> 1 µM

### Prompt Tell me its DC50 given CC[C@@H]1c2nnc(C)n2-c2cnc(Nc3ccc(C(=O)NC4CCN(CCCN5CCN(c6ccc7c(=O)n(C8CCC(=O)NC8=O)nc(C)c7c6)CC5)CC4)cc3OC)nc2N1CC1CCCCC1 (some centres unmarked) as the entry.
### Response < 0.1 µM

### Prompt Tell me its DC50 given CC[C@@H]1c2nnc(C)n2-c2cnc(Nc3ccc(C(=O)NC4CCN(C(=O)CN5CCN(c6ccc7c(=O)n(C8CCC(=O)NC8=O)nc(C)c7c6)CC5)CC4)cc3OC)nc2N1CC1CCCCC1 (some centres unmarked) as the entry.
### Response < 0.1 µM

---

Reported DC50 is given for each of the following compounds.
Target: BRD4 (Homo sapiens)
Assay: BRD4 protein degradation by western blotting in RPMI2650 cells (24 h treatment)
Assay type: cell-based
Design: To evaluate the resolution of PROTAC for BRD4 expressed in cells; endogenous in cells; host or cells: RPMI2650
Details: RPM12650, read-out: BRD4 (DC50)

### Prompt Tell me its DC50 given CC[C@@H]1c2nnc(C)n2-c2cnc(Nc3ccc(C(=O)N4CCN(CCNc5ccc6c(C)nn(C7CCC(=O)NC7=O)c(=O)c6c5)CC4)cc3OC)nc2N1CC1CCCCC1 (stereo partly shown) [ICT-0001600] as the entry.
### Response < 100 nM

### Prompt Tell me its DC50 given CC[C@@H]1c2nnc(C)n2-c2cnc(Nc3ccc(C(=O)N4CCN(c5ccc6c(=O)n(C7CCC(=O)NC7=O)ncc6c5)CC4)cc3OC)nc2N1CC1CCCCC1 (stereo partly shown) [ICT-0001577] as the entry.
### Response > 1000 nM

### Prompt Tell me its DC50 given CC[C@@H]1c2nnc(C)n2-c2cnc(Nc3ccc(C(=O)N4CCC(CN5CCN(c6ccc7c(=O)n(C8CCC(=O)NC8=O)nc(C)c7c6)CC5)CC4)cc3OC)nc2N1CC1CCCCC1 (stereo partly shown) [ICT-0001553] as the entry.
### Response < 100 nM

### Prompt Tell me its DC50 given CC[C@@H]1c2nnc(C)n2-c2cnc(Nc3ccc(C(=O)N4CCN(CCNc5cccc6cnn(C7CCC(=O)NC7=O)c(=O)c56)CC4)cc3OC)nc2N1CC1CCCCC1 (stereo partly shown) [ICT-0001601] as the entry.
### Response < 100 nM
